system: K-562 leukemia; assay: NCI tumour cell line growth inhibition, 48 h
experimental-readout: GI50

Solved entries:
>>> print(df.to_string())
                                   molecule  experimental_readout  recorded_measurement
0  C#CCOc1cccc(Nc2ncc3ncn(C4CCN(C(=O)CCl)C4)c3n2)c1 (stereo not given)                  GI50               17.9 µM
1      S=C(Nc1ccccc1)N1CCn2c1nsc2=Nc1ccccc1                  GI50               31.3 µM
2  CCN(CC)CCOc1nc2cc(OC)c(OC)cc2c2c1-c1ccc(OC)cc1C2=O                  GI50               2.06 µM

Lookup: Query (molecule): N=C1C(c2nc(-c3ccc(Br)cc3)cs2)=C(O)CN1CC1CCCO1 (stereo not given) ; field requested: GI50
Found: > 100 µM

Lookup: Query (molecule): "Cc1cc(S(=O)(=O)Nc2nc3cc(-c4ccsc4)sc3c(=O)n2N)c(S)cc1Cl" ; field requested: GI50
Found: 52 µM

Lookup: Query (molecule): "CN(C)c1ccc(N=C(C#N)c2nc(N)nc(N3CCN(c4ccccc4)CC3)n2)cc1" ; field requested: GI50
Found: > 50 µM

Lookup: Query (molecule): O=C(Nc1ccc(-c2ccnc(Nc3ccc(N4CCOCC4)cc3)n2)cc1)C1CCCN1 (stereo not given) ; field requested: GI50
Found: 2 µM

Lookup: Query (molecule): "O=C(Nc1cccc([N+](=O)[O-])c1)c1cc2ccccc2cc1O" ; field requested: GI50
Found: 0.845 µM

Lookup: Query (molecule): "C=C(C)[C@@H]1CC[C@]2(C)[C@H](CC=C3[C@@H]4[C@H](C)[C@@H](C)CC[C@]4(CO)CC[C@]32C)[C@@]1(C)CCCN" ; field requested: GI50
Found: 1.22 µM

Lookup: Query (molecule): "Cc1nn2c(/C=C3\C(=O)Nc4ccccc43)c(C)nc2s1" ; field requested: GI50
Found: 6.71 µM

// provenance: PubChem BioAssay (NCI)
